# Protocol Text: Assay for oral absorptivity (plasma drug level after oral administration)
# Assay type: in vivo
# Condition Description: male, rat, 40 μmol/kg; plasma drug level after oral administration, SD rats; read-out: AUC8 hr
Measurement Kind: AUC(0-t) (ng·h/mL)
Number only, in ng·h/mL; omit the unit.

1) Cc1cc(F)cc([C@H](Cn2c(=O)c(N3CCN(Cc4ccc(C(F)(F)F)o4)CC3)c(C)n(Cc3c(F)cccc3C(F)(F)F)c2=O)NCCCC(=O)O)c1: 19600

Continue with the next compound.
Task item: Name the recorded AUC(0-t) of the compound listed here: `Cc1c(N2CCN(Cc3cccc(C(F)(F)F)c3)CC2)c(=O)n(C[C@H](NCCCC(=O)O)c2ccccc2)c(=O)n1Cc1c(F)cccc1C(F)(F)F`
Reply: 29400
